- Test Target: HIV integrase (Human immunodeficiency virus type 1 group M subtype B, UniProt P12497, F1332H)
- Construct: HIV integrase full length gene
- Test Description: Determination of enzyme (HIV integrase) inhibitory activity
- Applied Conditions: recombinant HIV integrase (F185H), strand transfer ELISA, absorbance at 450 nm
Where a name gives a salt, the structure may show the parent alone.
Recorded measurements of IC50, one per entry
Recorded Metric: IC50

Compound	Recorded Metric	Experimental Result
Cn1cccc1C(=O)Nc1cn2ccn(Cc3cccc(Cl)c3)c(=O)c2c(O)c1=O	IC50	< 10 nM
O=c1c(-c2cccc(O)c2)cn2ccn(Cc3cccc(Cl)c3)c(=O)c2c1O	IC50	< 10 nM
O=C(NCc1ccccc1)c1cn2c(c(O)c1=O)C(=O)N(Cc1cccc(Cl)c1)CC2	IC50	< 10 nM
O=c1ccn2ccn(Cc3cccc(Br)c3)c(=O)c2c1O [Example 158, hydrochloride]	IC50	10 to 100 nM
O=C1c2c(O)c(=O)c(NS(=O)(=O)c3ccccc3)cn2CCN1Cc1ccc(F)c(Cl)c1	IC50	10 to 100 nM
Cc1cn(Cc2cccc(F)c2)c(=O)c2c(O)c(=O)c(-c3ccccn3)cn12 [Example 407, hydrochloride]	IC50	10 to 100 nM
COc1ccccc1-c1cn2ccn(Cc3cccc(Cl)c3)c(=O)c2c(O)c1=O [Example 132, hydrochloride]	IC50	10 to 100 nM
O=C1c2c(O)c(=O)ccn2C(Cc2ccccc2)CN1Cc1ccc(Cl)c(Cl)c1 (centres unmarked)	IC50	10 to 100 nM
CNC(=O)Cc1cn2ccn(Cc3cccc(Cl)c3)c(=O)c2c(O)c1=O	IC50	10 to 100 nM
O=c1ccn2ccn(CCCc3c(F)cccc3Cl)c(=O)c2c1O [Example 95, hydrochloride]	IC50	10 to 100 nM
O=C1c2c(O)c(=O)ccn2C(CO)CN1Cc1ccc(Cl)c(Cl)c1 (centres unmarked)	IC50	10 to 100 nM
O=c1ccn2ccn(Cc3cccc(Cl)c3O)c(=O)c2c1O [Example 179, hydrochloride]	IC50	10 to 100 nM
O=C1c2c(O)c(=O)c(-c3nccs3)cn2CCN1CCCc1c(F)cccc1Cl	IC50	< 10 nM
CC(C)C(C(=O)Nc1cn2ccn(Cc3cccc(Cl)c3)c(=O)c2c(O)c1=O)C(C)C	IC50	10 to 100 nM
O=C(c1cn2ccn(Cc3cccc(Cl)c3)c(=O)c2c(O)c1=O)N1CCOCC1	IC50	10 to 100 nM
CC(C)(C)C(=O)c1cn2c(c(O)c1=O)C(=O)N(Cc1cccc(Cl)c1)CC2 [Example 223, hydrochloride]	IC50	10 to 100 nM
O=C1c2c(O)c(=O)c(-c3nccs3)cn2CCN1CCCc1cccc(F)c1	IC50	10 to 100 nM
CCCc1cn(Cc2ccc(Cl)c(Cl)c2)c(=O)c2c(O)c(=O)ccn12	IC50	< 10 nM
O=C1c2c(O)c(=O)c(-c3nccs3)cn2CCN1Cc1ccc(Cl)cc1	IC50	10 to 100 nM
O=C1c2c(O)c(=O)c(-c3nccs3)cn2CCN1CCCc1ccccc1 [Example 316, hydrochloride]	IC50	10 to 100 nM
CN(C)C(=O)Cc1cn2ccn(Cc3cccc(Cl)c3)c(=O)c2c(O)c1=O	IC50	10 to 100 nM
CC(C)(C)C(O)Cc1cc(=O)c(O)c2n1CCN(Cc1ccc(F)cc1)C2=O (centres unmarked) [Example 422, hydrochloride]	IC50	10 to 100 nM
CC(C)C(=O)c1cn2ccn(Cc3cccc(Cl)c3)c(=O)c2c(O)c1=O [Example 149, hydrochloride]	IC50	< 10 nM

Attribution: patent US7211572B2
